Cited source: the FLAb antibody collection (doi:10.7554/elife.23156)

B1: scFv; the commonest letter at each place (parent)
chain 1: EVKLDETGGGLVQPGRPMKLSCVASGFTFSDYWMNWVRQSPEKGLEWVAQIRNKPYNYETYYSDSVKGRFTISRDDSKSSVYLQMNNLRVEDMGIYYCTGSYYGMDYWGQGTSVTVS
chain 2: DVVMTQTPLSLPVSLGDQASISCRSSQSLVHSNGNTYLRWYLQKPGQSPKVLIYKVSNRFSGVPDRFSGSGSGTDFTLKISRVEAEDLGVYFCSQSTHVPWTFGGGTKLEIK

variants of: B1; experiment: yeast surface expression (ratio to wild type); higher = more expressed; conditions: format: scFv 4-4-20, heavy + light
Would you please tag the item Yes when its yeast surface expression is 0.6 or above, and No when it is below?

INPUT: Dear colleague, could you confirm whether chain 1 F29V has yeast surface expression at or above 0.6?
OUTPUT: Yes

INPUT: What do we get for chain 1 M105V G109Y ?
OUTPUT: No

INPUT: # repeat for chain 1 T28S S30T W33R
OUTPUT: Yes

INPUT: Record: chain 1 Y32M W33V
OUTPUT: Yes

INPUT: Next up: chain 1 Y32L V37R
OUTPUT: No

INPUT: Again, but for chain 1 D106G W108E
OUTPUT: No

INPUT: Request: chain 1 S101L D106G
OUTPUT: No

INPUT: Cool, now chain 1 T28Y F29T W33T
OUTPUT: Yes

INPUT: Also chain 1 Y107R ?
OUTPUT: Yes

INPUT: Same thing, different variant: chain 1 G100Q G109E
OUTPUT: No

INPUT: Would you mind doing chain 1 N35E as well?
OUTPUT: Yes

INPUT: Same again, this time with chain 1 S30C V37D
OUTPUT: Yes

INPUT: Again, but for chain 1 W33C V37W
OUTPUT: No

INPUT: Also, chain 1 Y102Q D106Y please.
OUTPUT: No

INPUT: Same for chain 1 Y32G V37P
OUTPUT: Yes

INPUT: Try chain 1 S30V M34H next.
OUTPUT: No

INPUT: Same again, this time with chain 1 W33K V37L
OUTPUT: Yes

INPUT: Also chain 1 S30H Y32T ?
OUTPUT: Yes

INPUT: Now the variant chain 1 Y102R M105A
OUTPUT: Yes

INPUT: And what about the variant chain 1 D106N W108Q ?
OUTPUT: No

INPUT: Also need chain 1 G100Y Y102T , thanks.
OUTPUT: Yes
